Data provenance: patent EP0652217A1

tested on: Spontaneously hypertensive rats (SHR); test: Antihypertensive activity: blood pressure lowering in SHR; assay type: in vivo; conditions: oral, dose 10 mg/kg, suspended in 1.0 % Tween 80
Reported Maximum fall in blood pressure values follow for various molecules
Reply numerically in mmHg, unit not repeated.

> print(dat)
                           smiles.str  result.unit  test.value
1  c1cc(OCCCn2cnc3ccccc32)c2c(c1)OCO2         mmHg         -20
2       c1cc(OCCCCn2ccnc2)c2c(c1)OCO2         mmHg         -60
3    N#Cc1ncn(CCCOc2cccc3c2OCO3)c1C#N         mmHg         -20

Record "Clc1ncn(CCCOc2cccc3c2OCO3)c1Cl" . Reported Maximum fall in blood pressure: -20

Record "c1cc(OCCCCCn2ccnc2)c2c(c1)OCO2" . Reported Maximum fall in blood pressure: -25
